molecular target: dopamine D2 receptor (Homo sapiens); experiment: In vitro binding, dopamine D2
Sequence (P14416 whole entry, species assumed): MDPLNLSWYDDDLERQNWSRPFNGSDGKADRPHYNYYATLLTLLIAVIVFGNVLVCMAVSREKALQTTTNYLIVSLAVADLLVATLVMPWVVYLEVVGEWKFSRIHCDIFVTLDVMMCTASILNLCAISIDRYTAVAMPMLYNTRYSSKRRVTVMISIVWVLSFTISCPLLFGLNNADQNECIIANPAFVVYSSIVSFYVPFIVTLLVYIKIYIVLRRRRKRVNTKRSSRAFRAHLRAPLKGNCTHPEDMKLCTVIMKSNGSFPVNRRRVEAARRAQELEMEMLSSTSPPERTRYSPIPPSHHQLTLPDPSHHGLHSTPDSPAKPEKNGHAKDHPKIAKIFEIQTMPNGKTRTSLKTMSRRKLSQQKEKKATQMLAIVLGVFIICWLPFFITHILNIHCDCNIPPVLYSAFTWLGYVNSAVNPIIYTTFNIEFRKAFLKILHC
MEASUREMENT_LABEL: IC50

Quick note, IC50 for COc1cccc2c1CC(N(CC1CC1)CC1CC1)CC2 (stereo not shown) landed at 40 µM

====

biological target: UniProt:P08908; assay: In vitro binding, 5-HT1A
Sequence (P08908 whole entry): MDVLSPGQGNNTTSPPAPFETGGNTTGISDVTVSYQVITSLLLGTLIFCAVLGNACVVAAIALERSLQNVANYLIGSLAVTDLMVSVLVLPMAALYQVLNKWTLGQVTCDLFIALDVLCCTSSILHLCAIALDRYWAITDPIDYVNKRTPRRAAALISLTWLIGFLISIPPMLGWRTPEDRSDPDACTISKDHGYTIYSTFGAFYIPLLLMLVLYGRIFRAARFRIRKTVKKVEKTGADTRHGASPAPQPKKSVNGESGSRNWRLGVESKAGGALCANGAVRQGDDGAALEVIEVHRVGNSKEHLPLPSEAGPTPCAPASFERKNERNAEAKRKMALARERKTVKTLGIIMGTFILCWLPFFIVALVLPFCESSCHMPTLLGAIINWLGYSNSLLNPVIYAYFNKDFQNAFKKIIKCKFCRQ
MEASUREMENT_LABEL: pIC50
Here pIC50 is given on a logarithmic scale as minus log10 of the concentration in mol/L.

Quick note, pIC50 for COc1cccc2c1CC(N(CC1CC1)CC1CC1)CC2 (stereo not shown) [Example 8-OMe-DCPMAT] landed at 7.68
